Every entry's value here was drawn from patent US20240425518A1.

Entries below carry reported pIC50 on KDR (h) (Homo sapiens).
Sequence (P35968 20-1356): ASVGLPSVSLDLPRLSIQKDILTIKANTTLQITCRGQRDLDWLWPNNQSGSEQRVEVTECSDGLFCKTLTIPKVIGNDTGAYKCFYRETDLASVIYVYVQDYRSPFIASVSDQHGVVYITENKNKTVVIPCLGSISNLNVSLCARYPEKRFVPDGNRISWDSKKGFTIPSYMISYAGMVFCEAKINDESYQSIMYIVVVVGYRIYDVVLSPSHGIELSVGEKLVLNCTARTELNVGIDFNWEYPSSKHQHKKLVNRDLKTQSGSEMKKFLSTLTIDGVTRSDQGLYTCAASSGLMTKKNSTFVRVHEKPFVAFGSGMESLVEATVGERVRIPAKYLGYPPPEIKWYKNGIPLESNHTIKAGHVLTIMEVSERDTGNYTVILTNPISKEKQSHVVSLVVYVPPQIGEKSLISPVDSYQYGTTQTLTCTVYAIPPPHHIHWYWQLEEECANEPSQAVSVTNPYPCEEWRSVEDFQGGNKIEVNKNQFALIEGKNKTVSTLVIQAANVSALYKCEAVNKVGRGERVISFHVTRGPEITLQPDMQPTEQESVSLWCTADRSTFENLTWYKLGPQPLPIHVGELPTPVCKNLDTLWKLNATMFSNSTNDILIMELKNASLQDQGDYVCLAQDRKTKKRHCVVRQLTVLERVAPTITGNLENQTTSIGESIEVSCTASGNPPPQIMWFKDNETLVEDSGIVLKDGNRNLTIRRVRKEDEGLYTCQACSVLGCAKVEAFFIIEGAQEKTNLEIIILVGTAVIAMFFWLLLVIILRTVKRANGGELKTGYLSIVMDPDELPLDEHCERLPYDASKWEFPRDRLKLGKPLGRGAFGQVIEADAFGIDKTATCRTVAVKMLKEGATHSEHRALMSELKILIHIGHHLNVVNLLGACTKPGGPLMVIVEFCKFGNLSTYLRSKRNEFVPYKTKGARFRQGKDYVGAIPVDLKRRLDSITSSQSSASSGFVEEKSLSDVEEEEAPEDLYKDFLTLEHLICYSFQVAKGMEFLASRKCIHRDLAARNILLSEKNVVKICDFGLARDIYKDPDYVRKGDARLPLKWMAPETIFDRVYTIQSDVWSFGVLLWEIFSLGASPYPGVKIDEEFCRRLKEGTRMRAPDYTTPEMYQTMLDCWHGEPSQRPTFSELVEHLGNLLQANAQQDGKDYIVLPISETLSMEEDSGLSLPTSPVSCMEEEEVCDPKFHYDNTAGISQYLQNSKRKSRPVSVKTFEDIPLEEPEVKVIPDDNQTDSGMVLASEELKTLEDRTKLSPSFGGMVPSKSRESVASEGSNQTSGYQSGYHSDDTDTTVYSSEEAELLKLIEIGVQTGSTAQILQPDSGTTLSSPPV
pIC50: −log10 of the molar value.

[
  {
    "INPUT_SMILES": "C=CC(=O)Nc1cc2cc(c1)Nc1nccc(n1)-c1cccc(c1)COC/C=C/COC2",
    "pIC50": 7.21
  },
  {
    "INPUT_SMILES": "O=C(/C=C/CN1CCOCC1)Nc1cc2cc(c1)Nc1nccc(n1)-c1cccc(c1)COC/C=C/COC2",
    "pIC50": 7.68
  },
  {
    "INPUT_SMILES": "O=C(/C=C/C(=O)N1CCOCC1)Nc1cc2cc(c1)Nc1nccc(n1)-c1cccc(c1)COC/C=C/COC2",
    "pIC50": 7.40
  },
  {
    "INPUT_SMILES": "O=C(/C=C/CN1CCCC1)Nc1cc2cc(c1)Nc1nccc(n1)-c1cccc(c1)COC/C=C/COC2",
    "pIC50": 7.77
  },
  {
    "INPUT_SMILES": "CN(C)C/C=C/C(=O)Nc1cc2cc(c1)Nc1nccc(n1)-c1cccc(c1)COC/C=C/CN(C)C2",
    "pIC50": 6.48
  }
]
